Task for the reader: assign each of the following compounds its reported inhibition.
# assayed-system: Tubulin (Bos taurus) (UniProt Q6B856+Q862L2+Q862F3)
# cond: at 10 µM
# Description: Inhibition of bovine brain tubulin polymerization at 10 uM measured for 1 hr by fluorescence assay
Numbers only, in %.

Examples from the recorded data:
Summary for this compound, COc1cc(-c2cc(COCc3cn(Cc4cc(C)cnc4N4CCOCC4)nn3)on2)cc(OC)c1OC : inhibition is 19

Summary for this compound, COc1cc(C2=NOC(COCc3cn(Cc4cc(-c5ccccc5)cnc4N4CCOCC4)nn3)C2)cc(OC)c1OC (stereo not given) : inhibition is 46

Summary for this compound, COc1cc(COCc2cn(Cc3cc(C)cnc3N3CCSCC3)nn2)cc(OC)c1OC : inhibition is 27

Summary for this compound, COc1cc(COCc2cn(Cc3cc(-c4ccc(C)cc4)cnc3Cl)nn2)cc(OC)c1OC : inhibition is 35

---
Summary for this compound, COc1cc(C2=NOC(COCc3cn(Cc4cc(-c5ccc(F)cc5)cnc4Cl)nn3)C2)cc(OC)c1OC (stereo not given) : inhibition is 51

----------
# Test system: HeLa
# test-method-notes: Cytotoxicity against human HeLa cells after 48 hrs by MTT assay
# Format: functional, cell-based
Task for the reader: assign each of the following molecules its reported pIC50.
Give bare numbers, as −log10 of the molar value.

Summary for this molecule, COc1cc(C2=NOC(COCc3cn(Cc4cc(-c5ccc(C)cc5)cnc4Cl)nn3)C2)cc(OC)c1OC (centres undefined) : pIC50 is 5.01

Summary for this molecule, COc1cc(COCc2cn(Cc3cc(-c4ccc(F)cc4)cnc3Cl)nn2)cc(OC)c1OC : pIC50 is 4.30

Summary for this molecule, COc1cc(-c2cc(COCc3cn(Cc4cc(-c5ccc(F)cc5)cnc4Cl)nn3)on2)cc(OC)c1OC : pIC50 is 4.43

Give pIC50 for each of the items listed below.
1. COc1cc(-c2cc(COCc3cn(Cc4cc(-c5ccc(C)cc5)cnc4N4CCOCC4)nn3)on2)cc(OC)c1OC
2. COc1cc(C2=NOC(COCc3cn(Cc4cc(-c5ccc(C)cc5)cnc4N4CCOCC4)nn3)C2)cc(OC)c1OC (centres undefined)
3. COc1cc(COCc2cn(Cc3cc(C)cnc3N3CCSCC3)nn2)cc(OC)c1OC
4. COc1cc(COCc2cn(Cc3cc(-c4ccccc4)cnc3N3CCOCC3)nn2)cc(OC)c1OC
5. COc1cc(COCc2cn(Cc3cc(-c4ccc(C)cc4)cnc3N3CCOCC3)nn2)cc(OC)c1OC
6. COc1cc(COCc2cn(Cc3cc(-c4ccccc4)cnc3N3CCSCC3)nn2)cc(OC)c1OC

1: 4.44; 2: 4.41; 3: 4.21; 4: 4.07; 5: 4.45; 6: 4.50

----------
# Tested on: HeLa
# test-method-notes: Cytotoxicity against human HeLa cells after 48 hrs by MTT assay
# Format: functional, cell-based
// assign condition met if IC50 falls strictly below 40 µM, else condition not met (ties count as condition not met)

Is IC50 of COc1cc(C2=NOC(COCc3cn(Cc4cc(-c5ccccc5)cnc4Cl)nn3)C2)cc(OC)c1OC (stereo not drawn) strictly below 40 µM?
condition met

---
Is IC50 of COc1cc(-c2cc(COCc3cn(Cc4cc(C)cnc4N4CCOCC4)nn3)on2)cc(OC)c1OC strictly below 40 µM?
condition not met

Is IC50 of COc1cc(-c2cc(COCc3cn(Cc4cc(-c5ccc(C)cc5)cnc4Cl)nn3)on2)cc(OC)c1OC strictly below 40 µM?
condition met

----------
# Tested on: MCF7
# test-method-notes: Cytotoxicity against human MCF7 cells after 48 hrs by MTT assay
# Type: functional, cell-based
# cond: MCF7, 48 h
Task for the reader: assign each of the following compounds its reported IC50.
Numbers only, in µM.

Item COc1cc(C2=NOC(COCc3cn(Cc4cc(-c5ccc(C)cc5)cnc4Cl)nn3)C2)cc(OC)c1OC (centres undefined) ; assay system MCF7; IC50 reported as 12.9

Item COc1cc(-c2cc(COCc3cn(Cc4cc(-c5ccc(C)cc5)cnc4N4CCOCC4)nn3)on2)cc(OC)c1OC ; assay system MCF7; IC50 reported as 73.4

Item COc1cc(-c2cc(COCc3cn(Cc4cc(-c5ccc(C)cc5)cnc4N4CCSCC4)nn3)on2)cc(OC)c1OC ; assay system MCF7; IC50 reported as 64.8

Item COc1cc(C2=NOC(COCc3cn(Cc4cc(-c5ccccc5)cnc4N4CCSCC4)nn3)C2)cc(OC)c1OC (centres undefined) ; assay system MCF7; IC50 reported as 45

Item COc1cc(-c2cc(COCc3cn(Cc4cc(C)cnc4N4CCSCC4)nn3)on2)cc(OC)c1OC ; assay system MCF7; IC50 reported as 82.9

Item COc1cc(C2=NOC(COCc3cn(Cc4cc(-c5ccc(C)cc5)cnc4N4CCOCC4)nn3)C2)cc(OC)c1OC (centres undefined) ; assay system MCF7; IC50 reported as 59.6

Give IC50 for each of the items listed below.
1. COc1cc(C2=NOC(COCc3cn(Cc4cc(C)cnc4N4CCSCC4)nn3)C2)cc(OC)c1OC (centres undefined)
2. COc1cc(COCc2cn(Cc3cc(C)cnc3N3CCSCC3)nn2)cc(OC)c1OC
3. COc1cc(COCc2cn(Cc3cc(-c4ccc(F)cc4)cnc3Cl)nn2)cc(OC)c1OC

1: 45.1; 2: 82.1; 3: 96.6

----------
# System: MCF7
# test-method-notes: Cytotoxicity against human MCF7 cells after 48 hrs by MTT assay
# Type: functional, cell-based
# cond: MCF7, 48 h
parameter-measured: IC50 (µM)
Give bare numbers, in µM.

Summary for this compound, COc1cc(COCc2cn(Cc3cc(-c4ccccc4)cnc3Cl)nn2)cc(OC)c1OC : IC50 is 86.7

Summary for this compound, COc1cc(COCc2cn(Cc3cc(-c4ccccc4)cnc3N3CCOCC3)nn2)cc(OC)c1OC : IC50 is 97.6

Okay, now this compound:
Summary for this compound, COc1cc(C2=NOC(COCc3cn(Cc4cc(C)cnc4Cl)nn3)C2)cc(OC)c1OC (stereo not drawn) : IC50 is 85.5

----------
# assayed-system: Tubulin (Bos taurus) (UniProt Q6B856+Q862L2+Q862F3);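 also: polymerization of tubulin from bovine brain, tracked by a fluorescence readout over 1 h, reported as percent inhibition of assembly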
# cond: at 10 µM
Task for the reader: assign each of the following molecules its reported inhibition.
Answers are plain numbers, in %.

Examples from the recorded data:
Summary for this molecule, COc1cc(-c2cc(COCc3cn(Cc4cc(C)cnc4N4CCSCC4)nn3)on2)cc(OC)c1OC : inhibition is 32

Summary for this molecule, COc1cc(-c2cc(COCc3cn(Cc4cc(-c5ccccc5)cnc4N4CCSCC4)nn3)on2)cc(OC)c1OC : inhibition is 11

Summary for this molecule, COc1cc(COCc2cn(Cc3cc(-c4ccccc4)cnc3N3CCSCC3)nn2)cc(OC)c1OC : inhibition is 39

Give inhibition for each of the items listed below.
1. COc1cc(C2=NOC(COCc3cn(Cc4cc(-c5ccccc5)cnc4N4CCSCC4)nn3)C2)cc(OC)c1OC (configuration not stated)
2. COc1cc(-c2cc(COCc3cn(Cc4cc(-c5ccccc5)cnc4Cl)nn3)on2)cc(OC)c1OC
3. COc1cc(COCc2cn(Cc3cc(C)cnc3N3CCOCC3)nn2)cc(OC)c1OC
4. COc1cc(C2=NOC(COCc3cn(Cc4cc(C)cnc4N4CCOCC4)nn3)C2)cc(OC)c1OC (configuration not stated)
5. COc1cc(-c2cc(COCc3cn(Cc4cc(-c5ccc(F)cc5)cnc4Cl)nn3)on2)cc(OC)c1OC
6. COc1cc(-c2cc(COCc3cn(Cc4cc(-c5ccc(C)cc5)cnc4Cl)nn3)on2)cc(OC)c1OC
7. COc1cc(COCc2cn(Cc3cc(-c4ccc(F)cc4)cnc3Cl)nn2)cc(OC)c1OC
8. COc1cc(COCc2cn(Cc3cc(-c4ccc(C)cc4)cnc3N3CCOCC3)nn2)cc(OC)c1OC

50
16
45
27
46
59
41
48

Summary for this molecule, COc1cc(C2=NOC(COCc3cn(Cc4cc(C)cnc4N4CCSCC4)nn3)C2)cc(OC)c1OC (configuration not stated) : inhibition is 38

----------
# System: HeLa
# test-method-notes: Cytotoxicity against human HeLa cells after 48 hrs by MTT assay
# Assay type: functional, cell-based
// assign fulfilled if IC50 falls strictly below 40 µM, else not fulfilled (ties count as not fulfilled)

Is IC50 of COc1cc(COCc2cn(Cc3cc(C)cnc3N3CCOCC3)nn2)cc(OC)c1OC strictly below 40 µM?
fulfilled

Is IC50 of COc1cc(COCc2cn(Cc3cc(C)cnc3Cl)nn2)cc(OC)c1OC strictly below 40 µM?
not fulfilled

Is IC50 of COc1cc(C2=NOC(COCc3cn(Cc4cc(-c5ccccc5)cnc4N4CCSCC4)nn3)C2)cc(OC)c1OC (stereo not given) strictly below 40 µM?
fulfilled

Is IC50 of COc1cc(COCc2cn(Cc3cc(-c4ccc(C)cc4)cnc3N3CCSCC3)nn2)cc(OC)c1OC strictly below 40 µM?
not fulfilled

Is IC50 of COc1cc(-c2cc(COCc3cn(Cc4cc(C)cnc4N4CCSCC4)nn3)on2)cc(OC)c1OC strictly below 40 µM?
not fulfilled

---
Is IC50 of COc1cc(-c2cc(COCc3cn(Cc4cc(-c5ccccc5)cnc4Cl)nn3)on2)cc(OC)c1OC strictly below 40 µM?
not fulfilled

Is IC50 of COc1cc(-c2cc(COCc3cn(Cc4cc(-c5ccccc5)cnc4N4CCSCC4)nn3)on2)cc(OC)c1OC strictly below 40 µM?
not fulfilled

Is IC50 of COc1cc2c(c(OC)c1OC)-c1ccc(OC)c(=O)cc1[C@@H](NC(C)=O)CC2 [COLCHICINE] strictly below 40 µM?
fulfilled
